compounds and their reported IC50
Tested on: SKBR3
Conditions: 24 h
Residues, ends and D or L forms follow the SMILES beside them.
The reply should be a number in µM, with the unit left off.

Illustrative cases are given below, each with its answer.
compound | target_entity | quantity | reading
CC(C)C[C@H](NC(=O)CN)C(=O)NCC(=O)N[C@@H](CCCCN)C(=O)N[C@@H](C)C(=O)N[C@@H](CC(C)C)C(=O)N[C@@H](C)C(=O)N[C@@H](CCCCN)C(=O)N[C@@H](C)C(=O)N[C@@H](CC(C)C)C(=O)N[C@@H](C)C(=O)N[C@@H](CS)C(=O)N[C@@H](CC(C)C)C(=O)N[C@@H](C)C(=O)N[C@@H](CCCCN)C(=O)N[C@@H](C)C(=O)N[C@@H](CC(C)C)C(=O)N[C@@H](C)C(=O)O [B18L] (H-GLGKALAKALACLAKALA-OH) | SKBR3 | IC50 | 7.2
CC[C@H](C)[C@H](NC(=O)CN)C(=O)NCC(=O)N[C@@H](CCCCN)C(=O)N[C@@H](C)C(=O)N[C@H](C(=O)N[C@@H](C)C(=O)N[C@@H](CCCCN)C(=O)N[C@@H](C)C(=O)N[C@H](C(=O)N[C@@H](C)C(=O)N[C@@H](CS)C(=O)N[C@H](C(=O)N[C@@H](C)C(=O)N[C@@H](CCCCN)C(=O)N[C@@H](C)C(=O)N[C@H](C(=O)N[C@@H](C)C(=O)O)[C@@H](C)CC)[C@@H](C)CC)[C@@H](C)CC)[C@@H](C)CC [B18I] (H-GIGKAIAKAIACIAKAIA-OH) | SKBR3 | IC50 | 18.1

Continue with the next compound.
Sample CC(C)C[C@H](NC(=O)[C@H](C)NC(=O)[C@H](CCCCN)NC(=O)[C@H](C)NC(=O)[C@H](CC(C)C)NC(=O)[C@H](CS)NC(=O)[C@H](C)NC(=O)[C@H](CC(C)C)NC(=O)[C@H](C)NC(=O)[C@H](CCCCN)NC(=O)[C@H](C)NC(=O)[C@H](CCCCN)NC(=O)[C@H](C)NC(=O)[C@H](CCCCN)NC(=O)[C@H](CCC(N)=O)NC(=O)[C@H](Cc1ccccc1)NC(=O)CN)C(=O)N[C@@H](C)C(=O)O [B18KA] (H-GFQKAKAKALACLAKALA-OH) — what was its IC50?
43.5

---

Listing: pIC50 of selected compounds
System: MCF7-G11-TR1
Conditions: 24 h
Residues, ends and D or L forms follow the SMILES beside them.
# pIC50: negative log10 of molar concentration; output just the value

Here are 2 compounds together with their reported answers.
compound | pIC50
CC(C)C[C@H](NC(=O)CN)C(=O)NCC(=O)N[C@@H](CCCCN)C(=O)N[C@@H](C)C(=O)N[C@@H](CC(C)C)C(=O)N[C@@H](C)C(=O)N[C@@H](CCCCN)C(=O)N[C@@H](C)C(=O)N[C@@H](CC(C)C)C(=O)N[C@@H](C)C(=O)N[C@@H](CS)C(=O)N[C@@H](CC(C)C)C(=O)N[C@@H](C)C(=O)N[C@@H](CCCCN)C(=O)N[C@@H](C)C(=O)N[C@@H](CC(C)C)C(=O)N[C@@H](C)C(=O)O [B18L] (H-GLGKALAKALACLAKALA-OH) | 5.21
CC[C@H](C)[C@H](NC(=O)CN)C(=O)NCC(=O)N[C@@H](CCCCN)C(=O)N[C@@H](C)C(=O)N[C@H](C(=O)N[C@@H](C)C(=O)N[C@@H](CCCCN)C(=O)N[C@@H](C)C(=O)N[C@H](C(=O)N[C@@H](C)C(=O)N[C@@H](CS)C(=O)N[C@H](C(=O)N[C@@H](C)C(=O)N[C@@H](CCCCN)C(=O)N[C@@H](C)C(=O)N[C@H](C(=O)N[C@@H](C)C(=O)O)[C@@H](C)CC)[C@@H](C)CC)[C@@H](C)CC)[C@@H](C)CC [B18I] (H-GIGKAIAKAIACIAKAIA-OH) | 4.97

Now look at this entry.
Please give the measured pIC50 for this compound: CC(C)C[C@H](NC(=O)[C@H](C)NC(=O)[C@H](CCCCN)NC(=O)[C@H](C)NC(=O)[C@H](CC(C)C)NC(=O)[C@H](CS)NC(=O)[C@H](C)NC(=O)[C@H](CC(C)C)NC(=O)[C@H](C)NC(=O)[C@H](CCCCN)NC(=O)[C@H](C)NC(=O)[C@H](CCCCN)NC(=O)[C@H](C)NC(=O)[C@H](CCCCN)NC(=O)[C@H](CCC(N)=O)NC(=O)[C@H](Cc1ccccc1)NC(=O)CN)C(=O)N[C@@H](C)C(=O)O [B18KA] (H-GFQKAKAKALACLAKALA-OH)
4.21

---

Tested on: T47D
Settings: 24 h
Residues, ends and D or L forms follow the SMILES beside them.
The entries below are paired with their reported IC50.
Numeric only. Scale: µM

compound | IC50 / µM
CC(C)C[C@H](NC(=O)[C@H](C)NC(=O)[C@H](CCCCN)NC(=O)[C@H](C)NC(=O)[C@H](CC(C)C)NC(=O)[C@H](CS)NC(=O)[C@H](C)NC(=O)[C@H](CC(C)C)NC(=O)[C@H](C)NC(=O)[C@H](CCCCN)NC(=O)[C@H](C)NC(=O)[C@H](CCCCN)NC(=O)[C@H](C)NC(=O)[C@H](CCCCN)NC(=O)[C@H](CCC(N)=O)NC(=O)[C@H](Cc1ccccc1)NC(=O)CN)C(=O)N[C@@H](C)C(=O)O [B18KA] (H-GFQKAKAKALACLAKALA-OH) | 78.5

Could you share what IC50 was measured for CC(C)C[C@H](NC(=O)CN)C(=O)NCC(=O)N[C@@H](CCCCN)C(=O)N[C@@H](C)C(=O)N[C@@H](CC(C)C)C(=O)N[C@@H](C)C(=O)N[C@@H](CCCCN)C(=O)N[C@@H](C)C(=O)N[C@@H](CC(C)C)C(=O)N[C@@H](C)C(=O)N[C@@H](CS)C(=O)N[C@@H](CC(C)C)C(=O)N[C@@H](C)C(=O)N[C@@H](CCCCN)C(=O)N[C@@H](C)C(=O)N[C@@H](CC(C)C)C(=O)N[C@@H](C)C(=O)O [B18L] (H-GLGKALAKALACLAKALA-OH) , tested on T47D?
17.5

---

Test system: T47D
Conditions: 24 h
Residues, ends and D or L forms follow the SMILES beside them.
Each entry below carries its reported IC50.

# query: IC50 of entry CSCC[C@H](NC(=O)[C@@H](NC(=O)[C@@H](NC(=O)[C@H](Cc1c[nH]cn1)NC(=O)[C@H](CC(N)=O)NC(=O)[C@H](CS)NC(=O)[C@@H](NC(=O)[C@H](C)NC(=O)[C@H](C)NC(=O)[C@H](CCC(N)=O)NC(=O)[C@H](C)NC(=O)[C@H](CCCCN)NC(=O)[C@@H](NC(=O)[C@H](CCCCN)NC(=O)[C@H](CCC(N)=O)NC(=O)[C@H](Cc1ccccc1)NC(=O)CN)C(C)C)[C@@H](C)O)[C@@H](C)O)C(C)C)C(=O)N[C@@H](C)C(=O)O [B18K] (H-GFQKVKAQAATCNHTVMA-OH; N-terminus and C-terminus assumed)
> 131 µM

Can you share its IC50? I mean this compound: CSCC[C@H](NC(=O)[C@@H](NC(=O)[C@@H](NC(=O)[C@H](Cc1c[nH]cn1)NC(=O)[C@H](CC(C)C)NC(=O)[C@H](CS)NC(=O)[C@@H](NC(=O)[C@H](CC(C)C)NC(=O)[C@H](C)NC(=O)[C@H](CCC(N)=O)NC(=O)[C@H](C)NC(=O)[C@H](CCCCN)NC(=O)[C@@H](NC(=O)[C@H](CCCCN)NC(=O)[C@H](CCC(N)=O)NC(=O)[C@H](Cc1ccccc1)NC(=O)CN)C(C)C)[C@@H](C)O)[C@@H](C)O)C(C)C)C(=O)N[C@@H](C)C(=O)O [B18KL] (H-GFQKVKAQALTCLHTVMA-OH; N-terminus and C-terminus assumed)
> 128 µM

May I ask what IC50 has been recorded for CC[C@H](C)[C@H](NC(=O)CN)C(=O)NCC(=O)N[C@@H](CCCCN)C(=O)N[C@@H](C)C(=O)N[C@H](C(=O)N[C@@H](C)C(=O)N[C@@H](CCCCN)C(=O)N[C@@H](C)C(=O)N[C@H](C(=O)N[C@@H](C)C(=O)N[C@@H](CS)C(=O)N[C@H](C(=O)N[C@@H](C)C(=O)N[C@@H](CCCCN)C(=O)N[C@@H](C)C(=O)N[C@H](C(=O)N[C@@H](C)C(=O)O)[C@@H](C)CC)[C@@H](C)CC)[C@@H](C)CC)[C@@H](C)CC [B18I] (H-GIGKAIAKAIACIAKAIA-OH) ?
> 148 µM

meta.source: paper PMC7563317
